Target: human adrenergic-α2A receptor (Homo sapiens)
Construct: expressed in transfected cells; host or cells: CHO cells, stably transfected; membrane preparation
Sequence (P08913 whole entry): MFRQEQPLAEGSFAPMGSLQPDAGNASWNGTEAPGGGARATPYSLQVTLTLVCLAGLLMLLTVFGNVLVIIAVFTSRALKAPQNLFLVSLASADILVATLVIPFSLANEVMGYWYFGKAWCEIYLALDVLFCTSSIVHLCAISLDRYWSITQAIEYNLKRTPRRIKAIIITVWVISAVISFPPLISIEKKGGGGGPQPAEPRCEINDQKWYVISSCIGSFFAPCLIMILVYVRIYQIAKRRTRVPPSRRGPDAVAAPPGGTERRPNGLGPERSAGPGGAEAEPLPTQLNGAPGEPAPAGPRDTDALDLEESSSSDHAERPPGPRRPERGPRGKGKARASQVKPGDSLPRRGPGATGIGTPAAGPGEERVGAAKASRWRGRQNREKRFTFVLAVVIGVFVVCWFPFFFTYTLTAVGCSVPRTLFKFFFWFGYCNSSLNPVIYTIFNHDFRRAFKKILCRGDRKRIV
Test: Radioligand binding experiment for hα2A-adrenergic receptor ([3H]raulwolscine)
Details: [3H]raulwolscine 1 nM, 60 minutes at 25° C.; read-out: h-α2A pIC50 (converted)
observation.type: IC50 (nM)

Bench note, human adrenergic-α2A receptor (Homo sapiens): entry `O=c1c(NC2CCN(Cc3ccc4ccccc4c3)CC2)nccn1CCN1CCCCC1` , its IC50 = 200

1. CCCNC(=O)Cc1ccc(-n2ccnc(NC3CCN(Cc4ccc5ccccc5c4)CC3)c2=O)cc1
2. O=c1c(NC2CCN(Cc3ccc4ccccc4c3)CC2)nccn1-c1ccc(CNCc2ccco2)cc1
3. CN1CCN(c2ccc(-n3ccnc(NC4CCN(Cc5ccc6ccccc6c5)CC4)c3=O)cc2)CC1
Please rank these molecules by IC50 in descending order. Would you mind listing the labels in the order requested?
1, 2, 3
(1: 501 nM, 2: 158 nM, 3: 100 nM)

Measured values drawn from patent US20080269251A1 for this set.
